Origin of measurements: patent US7632829B2

Measured on: human chemokine receptor 2 isoform B (Homo sapiens)
Experimental details: Calcium mobilization assay (FLIPR, CHOK1-CCR2B-A5 cells, 20 nM MCP-1)
Condition description: Ca mobilisation assay, CCR2, antagonist activity vs 20 nM MCP-1
Measure name: IC50 (nM)
Write the value in nM as a bare number.

Here's what some known entries look like.
- Compound: "N#CC1(c2ccccc2)CCN(CCCN2CCN(C(=O)/C=C/c3ccc(Cl)c(Cl)c3)CCC2=O)CC1"
  Measured on: "human chemokine receptor 2 isoform B (Homo sapiens)"
  Assay value: 23
- Compound: "O=C(/C=C/c1ccc(Cl)c(Cl)c1)N1CCC(=O)N(C(CO)CCCN2CCCCC2)CC1 (racemic)"
  Measured on: "human chemokine receptor 2 isoform B (Homo sapiens)"
  Assay value: 3
- Compound: "O=C(/C=C/c1ccc(Cl)c(Cl)c1)N1CCC(=O)N(CCCCN2CCC(O)C2)CC1 (racemic)"
  Measured on: "human chemokine receptor 2 isoform B (Homo sapiens)"
  Assay value: 244

Continue with the next compound.
Would you kindly share the measured IC50 for CCOC(=O)NC1CCN(CCCN2CCN(C(=O)/C=C/c3ccc(Cl)c(Cl)c3)CCC2=O)CC1 ? 297

----------
Measured on: human chemokine receptor 2 isoform B (Homo sapiens, UniProt P41597)
Sequence (P41597 1-360 isoform P41597-2): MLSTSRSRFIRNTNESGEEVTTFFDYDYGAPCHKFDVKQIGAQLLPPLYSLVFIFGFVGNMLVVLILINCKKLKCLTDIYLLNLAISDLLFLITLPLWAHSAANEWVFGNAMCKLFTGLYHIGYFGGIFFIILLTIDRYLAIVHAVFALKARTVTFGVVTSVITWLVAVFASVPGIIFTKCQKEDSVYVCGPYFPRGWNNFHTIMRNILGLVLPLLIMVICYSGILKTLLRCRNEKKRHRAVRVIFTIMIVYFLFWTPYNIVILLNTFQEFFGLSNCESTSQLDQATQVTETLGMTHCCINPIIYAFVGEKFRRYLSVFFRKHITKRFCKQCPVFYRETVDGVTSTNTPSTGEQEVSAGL
Experimental details: Calcium mobilization assay (FLIPR, CHOK1-CCR2B-A5 cells, 20 nM MCP-1)
Condition description: Ca mobilisation assay, CCR2, antagonist activity vs 20 nM MCP-1
Protocol: CHOK1-CCR2B-A5 cells (from Euroscreen) stably overexpressing the human chemokine receptor 2 isoform B were cultured in Nutrient Hams F12 medium supplemented with 5% FBS, 100 U/ml penicillin, 100 μg/ml streptomycin, 400 μg/ml G418 and 5 μg/ml puromycin. […] Test compounds were added to the assay plate and agonist activity was monitored as fluorescence for 80 seconds with a FLIPR (488 nm excitation; 510-570 nm emission; Molecular Devices). […]
pIC50: −log10 of the molar value.
Lab note: anything with pIC50 at or over 7 counts as Fulfilled; the rest go in Not fulfilled.

Example entries begin here.
- Molecule: "CC1CCC(N(C)CCN2CCN(C(=O)/C=C/c3ccc(Cl)c(Cl)c3)CCC2=O)CC1 (mixture of isomers)"
  Category label: "Not fulfilled"
- Molecule: "O=C(/C=C/c1ccc(Cl)c(Cl)c1)N1CCC(=O)N(CCCCN2CC(O)CCC2CO)CC1 (racemic)"
  Category label: "Fulfilled"
- Molecule: "O=C(/C=C/c1ccc(Cl)c(Cl)c1)N1CCC(=O)N(CCCCN2CCCC(O)C2)CC1 (racemic)"
  Category label: "Fulfilled"

Is pIC50 for CC1(C)CCN(CCCCN2CCN(C(=O)/C=C/c3ccc(Cl)c(Cl)c3)CCC2=O)CC1O (racemic) at or above 7? Fulfilled

Quick check: does O=C(/C=C/c1ccc(Cl)c(Cl)c1)N1CCC(=O)N(C[C@@H](O)CN2CCC3(CC3)C(O)C2)CC1 (stereo partly drawn) [Example 327] have pIC50 greater than or equal to 7? Fulfilled

Please tell me: is the molecule CC1(O)CCCN(CCCCN2CCN(C(=O)/C=C/c3ccc(Cl)c(Cl)c3)CCC2=O)C1 (racemic) at or over 7 in terms of pIC50? Not fulfilled

Could you tell me if the measured pIC50 of O=C(/C=C/c1ccc(Cl)c(Cl)c1)N1CCC(=O)N(CCCCN2CCCCC2CO)CC1 (racemic) reaches 7 or more? Not fulfilled

Quick check, pIC50 >= 7? CC1(O)CCCN(CC(O)CN2CCN(C(=O)/C=C/c3ccc(Cl)c(Cl)c3)CCC2=O)C1 (racemic) Not fulfilled

Reported pIC50 reaches at least 7 for CCN(CC)C1CCN(CCCN2CCN(C(=O)/C=C/c3ccc(Cl)c(Cl)c3)CCC2=O)C1 (racemic) ? Not fulfilled

Does C[C@H]1[C@H](O)CCCN1CC(O)CN1CCN(C(=O)/C=C/c2ccc(Cl)c(Cl)c2)CCC1=O (mixture of isomers) have a reported pIC50 of at least 7? Not fulfilled

Is the recorded value of pIC50 equal to or greater than 7 for this molecule? CC1CC(O)CN(CCCN2CCN(C(=O)C=Cc3ccc(F)c(Cl)c3)CCC2=O)C1 (mixture of isomers) Fulfilled
